method.summary: Cmax in ICR mouse at 30 mg/kg, po measured upto 48 hrs by LCMS/MS method
Type: ADME, organism-based
Parameters: dose 30 mg/kg, route oral
test.parameters: in vivo
assay.readout: Cmax
The number alone won't do; follow it with the unit.

[in] Tell me Cmax reported for CCN(C)CCCCOc1ccc2c(=O)c(-c3ccc(OCCN4CCCCC4)cc3)coc2c1
[out] 52 ng/mL

----------
method.summary: AUC (0 to infinity) in ICR mouse at 30 mg/kg, po measured upto 48 hrs by LCMS/MS method
Format: ADME, organism-based
Parameters: dose 30 mg/kg, time infinity, route oral
test.parameters: in vivo
assay.readout: AUC(0-inf)
The number alone won't do; follow it with the unit.

[in] Tell me AUC(0-inf) reported for CCN(C)CCCCOc1ccc2c(=O)c(-c3ccc(OCCN4CCCCC4)cc3)coc2c1
[out] 352 ng·h/mL

----------
method.summary: AUC (0 to t) in ICR mouse at 30 mg/kg, po measured upto 48 hrs by LCMS/MS method
Type: ADME, organism-based
Design: time < 48 hr, dose 30 mg/kg, route oral
test.parameters: in vivo
assay.readout: AUC(0-t) at 48 h (ng·h/mL)
A number alone suffices; assume ng·h/mL.

[in] Tell me AUC(0-t) at 48 h reported for CCN(C)CCCCOc1ccc2c(=O)c(-c3ccc(OCCN4CCCCC4)cc3)coc2c1
[out] 325

----------
system: Acetylcholinesterase (Mus musculus) (UniProt P21836);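 further: enzyme taken from mouse brain, acetylthiocholine iodide as the substrate, read after 30 min with the Ellman method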
Sequence (P21836 whole entry): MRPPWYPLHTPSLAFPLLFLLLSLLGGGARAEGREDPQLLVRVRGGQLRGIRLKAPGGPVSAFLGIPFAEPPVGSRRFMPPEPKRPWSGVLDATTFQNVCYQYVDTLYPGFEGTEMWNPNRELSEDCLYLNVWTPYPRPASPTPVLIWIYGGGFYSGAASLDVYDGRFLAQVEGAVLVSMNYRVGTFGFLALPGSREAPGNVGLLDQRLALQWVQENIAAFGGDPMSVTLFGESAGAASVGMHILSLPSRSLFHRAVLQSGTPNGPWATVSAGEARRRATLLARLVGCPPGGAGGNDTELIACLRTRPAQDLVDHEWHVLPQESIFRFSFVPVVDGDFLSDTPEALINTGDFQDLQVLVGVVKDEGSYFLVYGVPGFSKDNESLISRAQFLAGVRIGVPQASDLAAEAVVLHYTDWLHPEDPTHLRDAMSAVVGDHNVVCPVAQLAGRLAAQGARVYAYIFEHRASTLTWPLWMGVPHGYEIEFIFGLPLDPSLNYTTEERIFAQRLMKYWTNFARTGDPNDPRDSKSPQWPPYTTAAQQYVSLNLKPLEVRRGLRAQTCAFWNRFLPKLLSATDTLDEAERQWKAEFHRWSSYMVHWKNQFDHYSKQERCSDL
test.parameters: at 10 µM
Description: Inhibition of mouse brain AChE at 10 uM using acetylthiocholine iodide as substrate measured after 30 mins by Ellman's method
assay.readout: inhibition (%)
A number alone suffices; assume %.

[in] Find the measured inhibition of COc1ccc(-c2coc3cc(OCCNC4CCCCC4)ccc3c2=O)cc1 with Acetylcholinesterase (Mus musculus) (UniProt P21836) as test system.
[out] 73.7

[in] Find the measured inhibition of O=c1c(-c2ccc(OCCN3CCCCC3)cc2)coc2cc(OCCCCN3CCCCC3)ccc12 with Acetylcholinesterase (Mus musculus) (UniProt P21836) as test system.
[out] 85.1

[in] Find the measured inhibition of O=c1c(-c2ccc(OCCN3CCCCC3)cc2)coc2cc(OCCN3CCCCC3)ccc12 with Acetylcholinesterase (Mus musculus) (UniProt P21836) as test system.
[out] 82.8

[in] Find the measured inhibition of COc1ccc(-c2coc3cc(OCCNC(=O)OC(C)(C)C)ccc3c2=O)cc1 with Acetylcholinesterase (Mus musculus) (UniProt P21836) as test system.
[out] -0.17

[in] Find the measured inhibition of COc1ccc(-c2coc3cc(OCCNc4c5c(nc6ccccc46)CCCC5)ccc3c2=O)cc1 with Acetylcholinesterase (Mus musculus) (UniProt P21836) as test system.
[out] 85.8

----------
method.summary: Cytotoxicity in human SH-SY5Y cells assessed as reduction in cell viability after 72 hrs incubation by MTT assay
test.parameters: sh-sy5y
assay.readout: CC50 at 72 h (µM)
A number alone suffices; assume µM.

[in] Tell me CC50 at 72 h reported for COc1cc2c(cc1OC)C(=O)C(CC1CCN(Cc3ccccc3)CC1)C2 (stereo unspecified) [DONEPEZIL]
[out] 25.1

----------
method.summary: Plasma concentration in ICR mouse at 30 mg/kg, po measured after 40 mins by LCMS/MS method
Assay type: ADME, organism-based
assay.readout: concentration at 40 min (ng/mL)
A number alone suffices; assume ng/mL.

[in] Tell me concentration at 40 min reported for CCN(C)CCCCOc1ccc2c(=O)c(-c3ccc(OCCN4CCCCC4)cc3)coc2c1
[out] 47.2
